meta.source: paper PMC4507791

Target or test system: MAO-B (Homo sapiens)
Sequence (P27338 1-520): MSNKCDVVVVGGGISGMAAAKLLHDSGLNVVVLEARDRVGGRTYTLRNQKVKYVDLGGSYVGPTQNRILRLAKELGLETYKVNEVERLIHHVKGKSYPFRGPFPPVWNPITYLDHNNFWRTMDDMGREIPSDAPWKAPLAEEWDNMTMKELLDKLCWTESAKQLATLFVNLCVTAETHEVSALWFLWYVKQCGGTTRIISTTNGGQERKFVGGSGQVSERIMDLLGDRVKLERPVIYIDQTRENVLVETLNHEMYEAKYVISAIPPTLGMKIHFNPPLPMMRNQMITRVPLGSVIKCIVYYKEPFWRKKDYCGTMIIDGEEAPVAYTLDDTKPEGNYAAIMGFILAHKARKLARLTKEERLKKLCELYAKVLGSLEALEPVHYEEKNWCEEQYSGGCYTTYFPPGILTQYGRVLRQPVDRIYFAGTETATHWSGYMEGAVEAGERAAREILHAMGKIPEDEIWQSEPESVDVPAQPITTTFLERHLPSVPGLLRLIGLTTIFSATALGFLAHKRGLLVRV
Assay text: IC50 determination, inhibition of recombinant human MAO-B
Entries and their measured pIC50 follow.
pIC50 is a log-scale quantity: -log10 of the concentration expressed in molar.

Reference set, count: 3
Molecule | pIC50
CC(=O)c1ccc(OCc2cccc(I)c2)cc1O [Compound 2h, 2-Acetyl-5-(3-iodobenzyloxy)phenol] | 7.85
CC(=O)c1ccc(OCc2ccc(C)cc2)cc1O [Compound 2j, 2-Acetyl-5-(4-methylbenzyloxy)phenol] | 7.59
CC(=O)c1ccc(OCc2ccccc2)cc1 [Compound 3a, 4′-Benzyloxyacetophenone] | 7.57

input: Fill in reported pIC50 for this entry: CC(=O)c1ccc(OCc2ccc(C#N)cc2)cc1O [Compound 2l, 2-Acetyl-5-(4-cyanobenzyloxy)phenol]
output: 8.40

input: Fill in pIC50 for record CC(=O)c1ccc(OCCCc2ccccc2)cc1O [Compound 2c, 2-Acetyl-5-(3-phenylpropoxy)phenol]
output: 7.22

input: Assign pIC50 to the following record: CC(=O)c1ccc(OCCc2ccccc2)cc1O [Compound 2b, 2-Acetyl-5-(2-phenylethoxy)phenol]
output: 6.80

input: Give the measured pIC50 for CC(=O)c1ccc(OCc2cccc(C)c2)cc1O [Compound 2i, 2-Acetyl-5-(3-methylbenzyloxy)phenol]
output: 7.27

input: For the molecule CC(=O)c1ccc(OCc2ccc(C(F)(F)F)cc2)cc1O [Compound 2m] , report pIC50.
output: 8.00

input: Please report pIC50 for the following molecule: CCCCOc1ccc(C(C)=O)c(O)c1 [Compound 2n, 2-Acetyl-5-butoxyphenol]
output: 6.99
